src = ChEMBL document CHEMBL3259715

Molecular target: D(2) dopamine receptor (Homo sapiens, UniProt P14416)
Sequence (P14416 whole entry): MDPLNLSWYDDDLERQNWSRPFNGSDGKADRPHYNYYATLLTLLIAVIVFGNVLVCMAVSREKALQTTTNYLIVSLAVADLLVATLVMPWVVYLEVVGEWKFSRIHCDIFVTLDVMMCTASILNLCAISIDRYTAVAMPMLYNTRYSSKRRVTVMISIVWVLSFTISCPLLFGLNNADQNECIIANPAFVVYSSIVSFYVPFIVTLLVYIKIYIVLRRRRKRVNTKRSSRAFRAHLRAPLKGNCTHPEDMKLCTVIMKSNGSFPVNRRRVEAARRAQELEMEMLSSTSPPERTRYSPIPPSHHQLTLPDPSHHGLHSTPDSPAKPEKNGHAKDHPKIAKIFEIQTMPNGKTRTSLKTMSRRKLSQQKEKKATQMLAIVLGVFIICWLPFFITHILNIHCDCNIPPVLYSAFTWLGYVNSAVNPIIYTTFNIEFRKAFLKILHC
Assay: Displacement of [3H]spiperone from human D2 receptor transfected in HEK cells
VALUE_KIND: pKi
Units for pKi: none; it is -log10 of a concentration expressed in mol/L.

Check out these entries, answers already filled in.
1) C=CCN1CCC[C@H]1CNC(=O)c1cc(CCCSC2CC(=O)N(CCCCCC(=O)N[C@@H](Cc3cnc[nH]3)C(=O)N[C@@H](C)C(=O)N[C@H](C(=O)N[C@@H](Cc3ccc(O)cc3)C(=O)N3CCC[C@H]3C(=O)N[C@@H](CCCNC(=N)N)C(=O)N[C@@H](Cc3cnc[nH]3)C(=O)O)[C@@H](C)CC)C2=O)cc(OC)c1OC (some centres not stated): 7.99
2) C=CCN1CCC[C@H]1CNC(=O)c1cc(CCCF)ccc1OC: 9.20
3) C=CCN1CCC[C@H]1CNC(=O)c1cc(CCCSC2CC(=O)N(CCCCCC(=O)NCC(=O)N[C@@H](CCCNC(=N)N)C(=O)N[C@@H](CCCCN)C(=O)N[C@@H](CCCCN)C(=O)N[C@@H](CCCNC(=N)N)C(=O)N[C@@H](CCCNC(=N)N)C(=O)N[C@@H](CCC(N)=O)C(=O)N[C@@H](CCCNC(=N)N)C(=O)N[C@@H](CCCNC(=N)N)C(=O)N[C@@H](CCCNC(=N)N)C(=O)N3CCC[C@H]3C(=O)N3CCC[C@H]3C(=O)N[C@@H](CCC(N)=O)C(=O)O)C2=O)cc(OC)c1OC (some centres not stated): 7.67
4) C=CCN1CCC[C@H]1CNC(=O)c1cc(CCCSC2CC(=O)N(CCCCCC(=O)NCCOCCOCCOCCOCCC(=O)N[C@@H](CCCCNC(=O)CN3CCN(CC(=O)O)CCN(CC(=O)O)CCN(CC(=O)O)CC3)C(=O)N[C@@H](Cc3cnc[nH]3)C(=O)N[C@@H](C)C(=O)N[C@H](C(=O)N[C@@H](Cc3ccc(O)cc3)C(=O)N3CCC[C@H]3C(=O)N[C@@H](CCCNC(=N)N)C(=O)N[C@@H](Cc3cnc[nH]3)C(=O)O)[C@@H](C)CC)C2=O)cc(OC)c1OC (some centres not stated): 7.28
5) C=CCN1CCC[C@H]1CNC(=O)c1cc(CCCSC2CC(=O)N(CCCCCC(=O)NCCCC(=O)N[C@@H](Cc3cnc[nH]3)C(=O)N[C@@H](C)C(=O)N[C@H](C(=O)N[C@@H](Cc3ccc(O)cc3)C(=O)N3CCC[C@H]3C(=O)N[C@@H](CCCNC(=N)N)C(=O)N[C@@H](Cc3cnc[nH]3)C(=O)O)[C@@H](C)CC)C2=O)cc(OC)c1OC (some centres not stated): 7.55

For the molecule C=CCN1CCC[C@H]1CNC(=O)c1cc(CCCSC2CC(=O)N(CCCCCC(=O)NCCOCCOCC(=O)N[C@@H](Cc3cnc[nH]3)C(=O)N[C@@H](C)C(=O)N[C@H](C(=O)N[C@@H](Cc3ccc(O)cc3)C(=O)N3CCC[C@H]3C(=O)N[C@@H](CCCNC(=N)N)C(=O)N[C@@H](Cc3cnc[nH]3)C(=O)O)[C@@H](C)CC)C2=O)cc(OC)c1OC (some centres not stated) , what pKi is on record?
7.52

For the molecule C=CCN1CCC[C@H]1CNC(=O)c1cc(CCCSC2CC(=O)N(CCCCCC(=O)NCCOCCOCCOCCOCCOCCOCCOCCOCCOCCOCCOCCOCCC(=O)N[C@@H](Cc3cnc[nH]3)C(=O)N[C@@H](C)C(=O)N[C@H](C(=O)N[C@@H](Cc3ccc(O)cc3)C(=O)N3CCC[C@H]3C(=O)N[C@@H](CCCNC(=N)N)C(=O)N[C@@H](Cc3cnc[nH]3)C(=O)O)[C@@H](C)CC)C2=O)cc(OC)c1OC (some centres not stated) , what pKi is on record?
7.60
